system: Rattus norvegicus; assay: Cmax in rat liver assessed as 2'-F-2'-C-Methyluridine-5''-TP level at 50 mg/kg, po; assay type: ADME, organism-based; design: dose 50 mg/kg, route oral; conditions: in vivo
property: Cmax (ng/g)

molecule="CCOC(=O)[C@H](C)NP(=O)(OC[C@H]1O[C@@H](n2ccc(=O)[nH]c2=O)[C@](C)(F)[C@@H]1O)Oc1ccc(F)cc1 (some centres not stated)" property=Cmax assay_value=291
molecule="CC(C)OC(=O)[C@H](C)NP(=O)(OC[C@H]1O[C@@H](n2ccc(=O)[nH]c2=O)[C@](C)(F)[C@@H]1O)Oc1ccc(F)cc1 (some centres not stated)" property=Cmax assay_value=519
molecule="COC(=O)[C@H](C)NP(=O)(OC[C@H]1O[C@@H](n2ccc(=O)[nH]c2=O)[C@](C)(F)[C@@H]1O)Oc1ccccc1 (some centres not stated)" property=Cmax assay_value=1985
molecule="CC(C)OC(=O)[C@H](C)NP(=O)(OC[C@H]1O[C@@H](n2ccc(=O)[nH]c2=O)[C@](C)(F)[C@@H]1O)Oc1ccc(Cl)cc1 (some centres not stated)" property=Cmax assay_value=339
molecule="CC(C)OC(=O)[C@H](C)NP(=O)(OC[C@H]1O[C@@H](n2ccc(=O)[nH]c2=O)[C@](C)(F)[C@@H]1O)Oc1ccccc1 (some centres not stated)" property=Cmax assay_value=1934
molecule="C[C@H](NP(=O)(OC[C@H]1O[C@@H](n2ccc(=O)[nH]c2=O)[C@](C)(F)[C@@H]1O)Oc1ccc(F)cc1)C(=O)OC1CCCCC1 (some centres not stated)" property=Cmax assay_value=716
molecule="C[C@H](NP(=O)(OC[C@H]1O[C@@H](n2ccc(=O)[nH]c2=O)[C@](C)(F)[C@@H]1O)Oc1ccccc1)C(=O)OC1CCCCC1 (some centres not stated)" property=Cmax assay_value=557

----------
test: Tmax in cynomolgus monkey plasma at 50 mg/kg, po qd for 4 days; format: ADME, organism-based, Macaca fascicularis; set-up: dose 50 mg/kg, route oral
property: Tmax (h)

compound="COC(=O)[C@H](C)NP(=O)(OC[C@H]1O[C@@H](n2ccc(=O)[nH]c2=O)[C@](C)(F)[C@@H]1O)Oc1ccccc1 (stereo partly drawn)" property=Tmax unit_label=h assay_value=0.25
compound="C[C@H](NP(=O)(OC[C@H]1O[C@@H](n2ccc(=O)[nH]c2=O)[C@](C)(F)[C@@H]1O)Oc1ccc(F)cc1)C(=O)OC1CCCCC1 (stereo partly drawn)" property=Tmax unit_label=h assay_value=6
compound="CC(C)OC(=O)[C@H](C)NP(=O)(OC[C@H]1O[C@@H](n2ccc(=O)[nH]c2=O)[C@](C)(F)[C@@H]1O)Oc1ccccc1 (stereo partly drawn)" property=Tmax unit_label=h assay_value=1

----------
experiment: AUC (0 to infinity) in dog plasma at 50 mg/kg, po qd for 4 days; type: ADME, organism-based, Canis lupus familiaris; parameters: time infinity, dose 50 mg/kg, route oral
property: AUC(0-inf)

compound="COC(=O)[C@H](C)NP(=O)(OC[C@H]1O[C@@H](n2ccc(=O)[nH]c2=O)[C@](C)(F)[C@@H]1O)Oc1ccccc1 (stereo partly drawn)" property=AUC(0-inf) assay_value="420 ng·h/mL"
compound="CC(C)OC(=O)[C@H](C)NP(=O)(OC[C@H]1O[C@@H](n2ccc(=O)[nH]c2=O)[C@](C)(F)[C@@H]1O)Oc1ccccc1 (stereo partly drawn)" property=AUC(0-inf) assay_value="6900 ng·h/mL"
compound="C[C@H](NP(=O)(OC[C@H]1O[C@@H](n2ccc(=O)[nH]c2=O)[C@](C)(F)[C@@H]1O)Oc1ccc(F)cc1)C(=O)OC1CCCCC1 (stereo partly drawn)" property=AUC(0-inf) assay_value="62 ng·h/mL"
